Reference for the values: PubChem BioAssay (NCI)

System: U251 CNS
Test: NCI tumour cell line growth inhibition, 48 h
Parameter: TGI. Scope: all listed entries.

compound	TGI
Oc1ccc2ccccc2c1N=Nc1cccc2ccccc12	> 100 µM
Cc1ccc(C(=O)O)c(/C=C2\Cc3ccc(C)cc3C2=O)c1	> 100 µM
CCCCCCNCCc1cnc[nH]1	> 100 µM
COc1ccc2c(c1)NC1=C(C(=O)OC1)C2c1cc(OC)c(OC)c(OC)c1 (stereo not given)	> 100 µM
O=S(Cc1ccccc1)c1nc2ccccc2nc1-c1cccs1 (stereo not given)	33.5 µM
CC1(C)C2CCC1(C)C(N/C(Sc1ccccc1)=C(/C(Cl)=C(Cl)Cl)[N+](=O)[O-])C2 (stereo not given)	23.5 µM
C=C1C(=O)OC2/C=C(\C(=O)O)CC/C=C(\C)CC(OC(=O)/C=C(\C)CC)C12 (stereo not given)	30.7 µM
Cc1c(-c2ccccc2)cc(O)c2nc3ccccc3n12	> 100 µM
C=C(C)[C@@H]1CC[C@]2(COCCCN)CC[C@]3(C)[C@H](CC[C@@H]4[C@@](C)(CCCNCCCN)[C@H](C(=C)C)CC[C@]43C)[C@@H]12	3.19 µM
N#CSCC(Cl)=CCl (mixture of isomers)	> 100 µM
C#CC1(O)C(COP(=O)(O)OCC(COP(=O)(O)OCC2OC(n3cc(F)c(=O)[nH]c3=O)CC2O)OCCCCCCCCCCCCCCCCCC)OC(n2ccc(N)nc2=O)C1O (stereo not given)	> 100 µM
CC/C=C\C[C@H]1CC=C2C(=O)C=C[C@@H]2CC=CCCCC(=O)O[C@@H](CCCCC)CC=C2C(=O)C=C[C@@H]2CC=CCCCC(=O)O[C@@H](CCCCC)CC=C2C(=O)C=C[C@@H]2CC=CCCCC(=O)O[C@@H](CCCCC)CC=C2C(=O)C=C[C@@H]2CC=CCCCC(=O)O1	3.13 µM
N/N=C\c1c2ccccc2c(=O)n2c1oc1ccccc12	27.7 µM
N#Cc1c(-c2ccc(Cl)cc2)c2c(n(C3OC(CO)C(O)C(O)C3O)c1=S)CCCC2 (stereo not given)	> 100 µM
CC(C)CCNC(=O)c1ccc(CNC(=O)/C=C/c2cccc(Oc3ccccc3)c2)cc1	> 100 µM
CCOC(=O)c1ccc(N=C/C=C(\Nc2ccc(C(=O)OCC)cc2)C23CC4CC(CC(C4)C2)C3)cc1	> 100 µM
Cc1ccc(S(=O)(=O)OC2CC=CC2)cc1	> 100 µM
CS(=O)(=O)CCNCc1coc(-c2ccc3ncnc(Nc4ccc(OCc5ccccc5)cc4)c3c2)c1	> 14.2 µM
COC(=O)C(=O)CC(=O)CCn1[nH]c(=O)c(Cl)c(Cl)c1=O	> 100 µM
Cc1cc(C)nc(NS(=O)(=O)c2ccc(Nc3c4ccccc4nc4ccc(C(=O)Nc5ccc(S(N)(=O)=O)cc5)cc34)cc2)n1	> 100 µM

====

Tested on: HT29 colon
Assay: NCI tumour cell line growth inhibition, 48 h
reportedMetric: TGI

compound	result
CN(C)/C=C/C(=CC=[N+](C)C)/C=C/N(C)C	> 100 µM
O=C1C=CC(=O)C2C1C1(Cl)C(Cl)=C(Cl)C2(Cl)C1(Cl)Cl (stereo unspecified)	23.9 µM
Cc1ccc(S(=O)(=O)Nc2cccc3c(=O)[nH]cnc23)cc1	> 100 µM
Nn1c(C23CC4CC(CC(C4)C2)C3)n[nH]c1=S	> 100 µM
C=C(CCOC)CCC1CCCCC(CN(C)C)C1=O (stereo unspecified)	> 100 µM
CCN1C[C@]2(C)CC[C@H](O)C34C1C(C[C@@H]32)[C@@]1(O)CC[C@H]2C[C@@H]4[C@@H]1[C@H]2O	> 100 µM

====

Test system: 786-0 renal
Assay: NCI tumour cell line growth inhibition, 48 h
Parameter: TGI. Scope: all listed entries.

compound	studySystem	TGI
COc1ccc2c(c1)OC1=C(C(=O)OC1)C2c1cc(OC)c2c(c1)OCCO2 (stereo unspecified)	786-0 renal	> 23.1 µM
N/N=C\c1c2ccccc2c(=O)n2c1oc1ccccc12	786-0 renal	61.7 µM
N#Cc1c(-c2ccc(Cl)cc2)c2c(n(C3OC(CO)C(O)C(O)C3O)c1=S)CCCC2 (stereo unspecified)	786-0 renal	> 100 µM
O=C(/C=C/c1ccccc1)Nc1ncc(Cc2ccccc2Cl)s1	786-0 renal	> 100 µM
CC(=O)Oc1cc2c(cc1OC(C)=O)C1(C)CCC2(C)c2cc(OC(C)=O)c(OC(C)=O)cc21	786-0 renal	> 100 µM
COC(=O)C(=O)CC(=O)CCn1[nH]c(=O)c(Cl)c(Cl)c1=O	786-0 renal	> 100 µM
CC(C)CCNC(=O)c1ccc(CNC(=O)/C=C/c2cccc(Oc3ccccc3)c2)cc1	786-0 renal	69.3 µM
CCOc1cccc(/C=N/NC(=O)c2cccc(Nc3ccnc(C(F)(F)F)c3)c2)c1O	786-0 renal	> 20.7 µM
Cc1nc2ccc(Br)cc2c(=O)n1-c1nnc(C(C)(C)C)s1	786-0 renal	> 10 µM
COc1ccc(NC(=O)CC/C(CC(=O)c2ccco2)=N/NC(=O)C(N)=O)cc1	786-0 renal	> 100 µM
N#CCC(=O)N/N=C1/C(=O)N(c2ccc(Cl)cc2)C(=O)C(=O)C1c1nc2ccccc2s1 (stereo unspecified)	786-0 renal	> 100 µM
CC(=O)C(C(c1ccccc1)N1CCOCC1)N1CCOCC1 (stereo unspecified)	786-0 renal	> 100 µM
CCOC(=O)Nc1cc2c(c(N)n1)N=C(c1ccc(OC)cc1)CN2	786-0 renal	1.9 µM
O=NNc1ccc2ccccc2n1	786-0 renal	> 100 µM
COc1cc(C=O)c(-c2c(C=O)ccc3c2OCO3)c(OC)c1OC	786-0 renal	> 100 µM
COc1cc(NCC(C#N)C#N)ccc1N=Nc1ccc(Cl)cc1	786-0 renal	48.8 µM
C=C(C)C1CC2(C)C(C)CC(O)CC2C(OC(=O)C=C(C)C)C1O (stereo unspecified)	786-0 renal	> 100 µM
Cc1ccc(C2=C(c3ccc(C)cc3)C3(c4ccc(C)cc4)C4C(=O)OC(=O)C4C2(c2ccc(C)cc2)S3=O)cc1 (stereo unspecified)	786-0 renal	27.7 µM
CC(=O)OC1OC([C@H]2c3cccc(O)c3C(=O)c3c(O)cc(C)cc32)C(O)C(O)C1O (stereo partly specified)	786-0 renal	1.99 µM
[N-]=[N+]=NCCCn1c2c(c3ccc([N+](=O)[O-])cc3c1=O)C(=O)c1ccccc1-2	786-0 renal	> 100 µM
C#CCn1c(=O)c(I)cn(/C(=C/C(=O)OCC)C(=O)OCC)c1=O	786-0 renal	3.09 µM

====

Test system: A549 NSCLC
Assay: NCI tumour cell line growth inhibition, 48 h

molecule	studySystem	TGI
CCCCCCNCCc1cnc[nH]1	A549 NSCLC	> 100 µM
CC1(C)[C@@H]2CC[C@]1(C)[C@H](OC(=O)CSC#N)C2	A549 NSCLC	> 100 µM
CCCCCCCCCCCCCP(=O)(O)O	A549 NSCLC	> 100 µM
CCOC(=O)[CH-]C(=O)C12CC3CC(CC(C3)C1)C2.CCOC(=O)[CH-]C(=O)C12CC3CC(CC(C3)C1)C2.CC[O-].CC[O-].[Ti+4]	A549 NSCLC	> 100 µM
CC(=O)SCCC(NC(=S)Nc1ccccc1)P(=O)(Oc1ccccc1)Oc1ccccc1 (stereo not given)	A549 NSCLC	> 100 µM
CCCCCCCCCCCC(=O)OCCOCCOCCOCCOCCOC(=O)CCCCCCCCCCC	A549 NSCLC	> 100 µM
CSC(SC)(C(=O)O)c1cc(-c2c(Cl)cccc2Cl)no1	A549 NSCLC	> 100 µM
CC(C)CCNC(=O)c1ccc(CNC(=O)/C=C/c2cccc(Oc3ccccc3)c2)cc1	A549 NSCLC	> 100 µM
O=NNc1ccc2ccccc2n1	A549 NSCLC	> 100 µM
CN(C)Cc1cc(C(F)(F)F)ccc1C(O)(c1ccccc1)c1ccccc1	A549 NSCLC	29.5 µM
C[C@]12CCc3sc(Nc4ccc(OC(F)(F)F)cc4)nc3C1=CC[C@@H]1[C@@H]2CC[C@]2(C)C(=O)CC[C@@H]12	A549 NSCLC	16.1 µM
Cc1ccc(C)c(NC(=O)CC2Sc3ccccc3NC2=O)c1 (stereo not given)	A549 NSCLC	> 100 µM
CCCCCCCCn1ccc2cc(NC(=O)Cn3cc(CN4CCCCCC4)nn3)ccc21	A549 NSCLC	3.36 µM
Cc1ccc(C2(O)CSC(=NC34CC5CC(CC(C5)C3)C4)N2C(P(=O)(O)O)P(=O)(O)O)cc1 (stereo not given)	A549 NSCLC	> 100 µM
COc1ccc2c(c1)C(=O)/C(=C/c1cccc(OCC(=O)c3ccccc3)c1)O2	A549 NSCLC	24.9 µM
COc1ccc(NC(=O)CC/C(CC(=O)c2ccco2)=N/NC(=O)C(N)=O)cc1	A549 NSCLC	> 100 µM
N[C@@H]1CCN(c2c(F)cc3c(=O)c(C(=O)O)cn4c3c2Oc2c-4ccc3c2ccc2ccccc23)C1	A549 NSCLC	> 100 µM
CCN1C[C@]2(C)CC[C@H](O)C34C1C(C[C@@H]32)[C@@]1(O)CC[C@H]2C[C@@H]4[C@@H]1[C@H]2O	A549 NSCLC	> 100 µM
Cc1ccc(S(=O)(=O)Nc2cccc3c(=O)[nH]cnc23)cc1	A549 NSCLC	> 100 µM
CC12C=CC(C)(C3C(=O)C4C(C(=O)C31)C1(C)C=CC4(C)S1=O)S2=O (stereo not given)	A549 NSCLC	> 100 µM
